# test.target: T1, CD27 expressed on the cell surface of HT1080_CD27 cells (human, UniProt P26842 20-260); further: test concentration or dose not given here
# T1 sequence (looked up): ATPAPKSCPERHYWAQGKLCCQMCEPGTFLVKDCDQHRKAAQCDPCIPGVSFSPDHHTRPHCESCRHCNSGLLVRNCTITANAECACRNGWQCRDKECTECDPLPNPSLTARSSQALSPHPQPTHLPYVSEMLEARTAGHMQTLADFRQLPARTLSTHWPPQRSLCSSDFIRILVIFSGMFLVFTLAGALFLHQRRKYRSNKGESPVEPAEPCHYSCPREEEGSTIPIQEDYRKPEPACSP
# assay.details: cell-based or functional assay
property.label: Functional assay IL-8
Units required after the number.

// solved cases for Functional assay IL-8 follow
binder	result
P018.S.09.A.A06 (antibody, V domains shown, V regions on human Ig constant parts; also called AB27_146) VH: QEQLKESGGGLVQPGESLTLTCTASGFSLSSYYMSWVRQAPGKGLEWIGMISTGGSAYYANWARGRFTISRTSTTVDLKVTSLTTEDTATYFCARGWRYEDLWGQGTLVTVSS VL: AQVLTQTPSPVSAAVGSTVTINCQSSQTVYNNNYLAWYQQKPGQPPKLLIYDASNLASGVSSRFSGSGSGTQFTLTISDLESDDAATYYCQGTYYDNAWYHTFGGGTEVVVK	2.19 abs. corr.
P018.S.06.A.H05 (antibody, V domains shown, V regions on human Ig constant parts; also called AB27_112) VH: QSLEESGGDLVQPEGSLTLTCKASGFDFSSTYWICWVRQAPGKGLEWIGCIDDSYAYTYYASWAKGRFTISKPSSTTVTLQVTSLTVADTATYFCARDGYPGYGVGSFNLWGPGTLVTVSS VL: AIVMTQTPSSKSVPVGDTVTINCQASESVYSNNRLAWFQQKPGQPPKLLIYLASTLASGVPSRFKGSGSGTQFTLTISDVVSDDAATYYCAGYKSYSDDGTGFGGGTEVVVK	0.278 abs. corr.
P018.S.01.A.E02 (antibody, V domains shown, V regions on human Ig constant parts; also called AB27_14) VH: QSVEESGGRLVTPGTPLTLTCTASGFSLSNYYMSWVRQAPGKGLEWIGIISTYGDTYYATWAKGRFTISKTSTTVDLKITSPTTEDTATYFCARGSSDTYYTYFNLWGPGTLVTVSS VL: DIVMTQTPASVEAAVGGTVTIKCQASQKIYNNLAWYQQKPGQPPKLLIYSASTLASGVPSRFKGSGSGTEFTLTISDLESADAATYYCQSYGVSANTISYGLPFGGGTEVVVK	0.276 abs. corr.
P018.S.09.A.E02 (antibody, V domains shown, V regions on human Ig constant parts; also called AB27_153) VH: QSLEESGGRLVTPGTPLTLTCTASGFTISSHHMTWVRQAPGEGLEWLGVIFPSGHTYYTSWAKGRFTISRTSTTVDLKMASLTIEDTATYFCVRDVGYFTLWGQGTLVTVSS VL: AQVLTQTPSPVSAAVGGTVTISCQSSESVGGNNWLAWYQQKLGQPPKLLIYGASTLASGVPSRFSGSGSGTQFTLTISEVQSDDAATYYCQGYYSDVTNAFGGGTEVVVE	0.172 abs. corr.

Alright, here's another binder for you.
The binder identified as P018.S.10.A.C01 (antibody, V domains shown, V regions on human Ig constant parts; also called AB27_170) VH: QSVEESGGRLVTPGTPLTLTCTLSGFSLSNYAMSWVRQAPGKGLEWIGVIYTSGTTHYASWAKGRFTISKTSTTVDLRMTSLTTEDTATYFCARSRYYGSGWGGYYFNLWGQGTLVTVSS VL: DVVMTQTPSPVSAAVGGTVTINCQASEDIYSLLAWYQQKPGQRPKLLIYGASNLESGVPSRFKGSGSGTEYTLTISGVQSADAATYYCHGGTYTGSADINAFGGGTEVVVE registered its Functional assay IL-8 at -0.046 abs. corr.
